- System: MDA-MB-231 multicell spheroids, viability
- protocol text: Anticancer human tumor MDA-MB-231 cell line growth inhibition [PI3K];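 also: spheroids exposed to agents for seven days before reading; percent of vehicle control luminescence with DMSO treated spheroids as 100%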
- test parameters: compound 0.0316 µM; stronger effect = lower value
viability, T/C: recorded values

Here is how some compounds turned out for viability, T/C.
compound | viability, T/C
C#Cc1c(F)ccc2cc(O)cc(-c3ncc4c(N5CC6CCC(C5)N6)nc(OCC56CCCN5CC(F)C6)nc4c3F)c12 (stereo not drawn) | 110% [middle of 4 runs]
Cn1ncc(Cl)c1-c1cc(C(=O)NC(CN)Cc2cccc(F)c2)sc1Cl (stereo not drawn) | 111% [middle of 4 runs]
CCN1CCN(Cc2ccc(Nc3ncc(F)c(-c4cc(F)c5nc(C)n(C(C)C)c5c4)n3)nc2)CC1 | 87% [middle of 4 runs]
CCCS(=O)(=O)Nc1ccc(F)c(C(=O)c2c[nH]c3ncc(-c4ccc(Cl)cc4)cc23)c1F | 113% [middle of 4 runs]
Cn1ncnc1[C@H]1c2n[nH]c(=O)c3cc(F)cc(c23)N[C@@H]1c1ccc(F)cc1 | 94% [middle of 4 runs]
CNC(=O)c1ccc(N2C(=S)N(c3ccc(C#N)c(C(F)(F)F)c3)C(=O)C2(C)C)cc1F | 110% [middle of 4 runs]
C=CC(=O)N1CCN(c2nc(=O)n(-c3c(C)ccnc3C(C)C)c3nc(-c4c(O)cccc4F)c(F)cc23)C(C)C1 (stereo not drawn) | 109% [middle of 4 runs]

Item CC(C)NCC(C(=O)N1CCN(c2ncnc3c2C(C)CC3O)CC1)c1ccc(Cl)cc1 (stereo not drawn) : provide viability, T/C
114% [middle of 4 runs]

----------
- Test system: MDA-MB-231 multicell spheroids, viability
- protocol text: Anticancer human tumor MDA-MB-231 cell line growth inhibition [PI3K];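 also: spheroids exposed to agents for seven days before reading; percent of vehicle control luminescence with DMSO treated spheroids as 100%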
- test parameters: second compound 0.0316 µM; first compound 0.1 µM; stronger effect = lower value
So basically every entry gets a class from its viability, T/C, ranges being L: < 50%; M: ≥ 50% and < 80%; H: ≥ 80%

Please review the following examples before continuing.
compound | category
CC(C)NCC(C(=O)N1CCN(c2ncnc3c2C(C)CC3O)CC1)c1ccc(Cl)cc1 (stereo unspecified) + CC(Nc1ccc2c(c1)OCCn1cc(N3C(=O)OCC3C(F)F)nc1-2)C(N)=O | H
CCN1CCN(Cc2ccc(Nc3ncc(F)c(-c4cc(F)c5nc(C)n(C(C)C)c5c4)n3)nc2)CC1 + CC(Nc1ccc2c(c1)OCCn1cc(N3C(=O)OCC3C(F)F)nc1-2)C(N)=O | L
CC1(C)CCC(Nc2ncc(C(F)(F)F)c(-c3c[nH]c4c(P(C)(C)=O)c(C#N)ccc34)n2)CN1 (stereo unspecified) + CC(Nc1ccc2c(c1)OCCn1cc(N3C(=O)OCC3C(F)F)nc1-2)C(N)=O | L
Cn1ncc(Cl)c1-c1cc(C(=O)NC(CN)Cc2cccc(F)c2)sc1Cl (stereo unspecified) + CC(Nc1ncnc2nc[nH]c12)c1cc2cccc(Cl)c2c(=O)n1-c1ccccc1 | H
CC(C)NCC(C(=O)N1CCN(c2ncnc3c2C(C)CC3O)CC1)c1ccc(Cl)cc1 (stereo unspecified) + COc1c(OCCCN2CCOCC2)ccc2c3n(c(=NC(=O)c4cnc(N)nc4)nc12)CCN3 | M

Okay, now this compound:
Band for the recorded viability, T/C of Cn1nccc1Nc1nccc(-c2ccn(C(CO)c3ccc(Cl)c(F)c3)c(=O)c2)n1 (stereo unspecified) + Cc1nc(NC(=O)N2CCCC2C(N)=O)sc1-c1ccnc(C(C)(C)C(F)(F)F)c1 ?
M
